Values from paper PMC9019904

# Test system: BV2 (mouse microglia) cell line
# Measurement Notes: pHrodo-myelin phagocytosis/cell viability high content imaging assay: viability (cell count, nuclear area, nuclear intensity)
# Test Conditions: BV2 cells, 10 uM compound, 48 hours treatment
# Description: All AD Informer Set compounds were tested in two immortalized microglial cell lines, murine (BV2), and human (HMC3), in a high‐content imaging assay in duplicate by the Chu lab. Experimental details and all data can be found as supporting information files. The role of microglia in AD has been well documented and was thus chosen as a cell type in which to profile the AD Informer Set.[43], [44], [45] […] Cytotoxic effects can be assessed by considering multiple parameters. […]
Where a SMILES comes first, the peptide text is derived from it. [ ]: non-standard residue; d: D form. The star is where a group is joined. ξ: configuration not given here. ξF = NC(Cc1ccccc1)C(=O)O; Cbz = O=C(OCc1ccccc1)*
Measurement Label: 3. Nuclear DNA Intensity (% control)

>>> observed_value("O=c1oc2ccccc2cc1-c1cn2cc(Cc3ccc(F)cc3)sc2n1 [UNC10302680A]")
132.0
>>> observed_value("CNC(=O)[C@H](Cc1c[nH]c2ccccc12)NC(=O)[C@@H](CC(=O)NO)CC(C)C [UNC10302858A]")
98.5
>>> observed_value("CC(Nc1nc(N2CCCC2)nc2ccccc12)c1ccccc1 (centres unmarked) [UNC10302900A]")
119.7
>>> observed_value("COc1ccc(/C=C/C(=O)c2ccc(OC)cc2OC)cc1 [UNC10121790A]")
104.1
>>> observed_value("CS[C@@]1(C(=O)Nc2ccc3[nH]nc(-c4ccc(OC(C)C)nc4)c3c2)CCN(CC(=O)N2CC=C(c3ccc(-c4ncn(C)n4)cc3)CC2)C1 [UNC10302902A]")
112.2
>>> observed_value("COc1nc(OCc2cccc(-c3ccccc3)c2C)ccc1CNCCNC(C)=O.Cl [UNC10302832A]")
35.4
>>> observed_value("CCc1ccc(CCOc2ccc(CC3SC(=O)NC3=O)cc2)nc1.Cl (centres unmarked) [UNC10240376D]")
109.5
>>> observed_value("COc1cccc2c(NCc3ccccc3)nc(-n3c(N)nc4ccccc43)nc12 [UNC10302841A]")
62.4
>>> observed_value("CC(C)CCC[C@@H](C)[C@H]1CC[C@H]2[C@@H]3CC[C@H]4C[C@H](N)CC[C@]4(C)[C@H]3CC[C@]12C [UNC10302970A]")
93.1
>>> observed_value("O=S(=O)(c1ccc2c(c1)C(=NO)c1cc(S(=O)(=O)N3CCCCC3)ccc1-2)N1CCCCC1 [UNC10302976A]")
256.7
>>> observed_value("CN1C(N)=N[C@](C)(c2cc(NC(=O)c3ccc(F)cn3)ccc2F)CS1(=O)=O [UNC10303092A]")
102.5
>>> observed_value("Cc1cc(NC(=O)Nc2ccccc2)n(-c2ccccc2)n1 [UNC10302880A]")
102.6
>>> observed_value("CCN(C)C(=O)Oc1cccc([C@H](C)N(C)C)c1 [UNC10303091A]")
100.1
>>> observed_value("CN(C)CC1CCOC1(c1ccccc1)c1ccccc1.Cl (centres unmarked) [UNC10303096A]")
104.2
>>> observed_value("O=c1ccc2c(OCCCCOc3ccccc3)c3ccoc3cc2o1 [UNC10302901A]")
102.9
>>> observed_value("C=CC(=O)Nc1cc2c(Nc3ccc(F)c(Cl)c3)ncnc2cc1OCCCN1CCOCC1.Cl.Cl [UNC10126563B]")
52.1
>>> observed_value("N#Cc1ccc(COC[C@H]2O[C@@H](n3c(NCc4ccc(Cl)c(Cl)c4)nc4c(N)ncnc43)[C@H](O)[C@@H]2O)cc1 [UNC10302853A]")
111.0
>>> observed_value("C[C@]12C=CC(=O)C=C1CC[C@@H]1[C@@H]2[C@@H](O)C[C@@]2(C)[C@H]1CC[C@]2(O)C(=O)CO [UNC10240227A]")
105.7
>>> observed_value("COc1cc([C@@H]2c3cc4c(cc3[C@H](O)[C@H]3COC(=O)[C@H]23)OCO4)cc(OC)c1OC [UNC10100984A]")
112.7
>>> observed_value("C[C@H](N/C(=N\\c1cccc2ncccc12)NC#N)c1ccccc1 [UNC10302855A]")
103.1
>>> observed_value("COS(=O)(=O)[O-].C[n+]1c2ccccc2nc2ccccc21 [UNC10302857A]")
59.8
>>> observed_value("N#CC(CCCN1CCN(/N=C/c2cccnc2)CC1)(c1ccccc1)c1ccccc1 [UNC10302973A]")
96.8
>>> observed_value("CNC(=O)CN1CCC(Oc2cc3c(Nc4cccc(Cl)c4F)ncnc3cc2OC)CC1 [UNC10302865A]")
101.0
>>> observed_value("CN(C)CCCN1c2ccccc2Sc2ccc(Cl)cc21.Cl [UNC10100309D]")
99.3
>>> observed_value("Cl.O=C(NCCCNc1nc(Nc2cccc(CN3CCOCC3)c2)ncc1C1CC1)C1CCC1 [UNC10302867A, reference compound]")
122.3
>>> observed_value("CC(C)[C@H](NC(=O)OCc1ccccc1)C(=O)NC(C=O)Cc1ccccc1 (stereo partly drawn) [UNC10302675A] (Cbz-Val-[ξF]-aldehyde)")
114.8
